# measuredOn: T1, ecdTDR W353A mutant (Arabidopsis thaliana, UniProt Q9FII5 30-642, W353A)
# T1 sequence: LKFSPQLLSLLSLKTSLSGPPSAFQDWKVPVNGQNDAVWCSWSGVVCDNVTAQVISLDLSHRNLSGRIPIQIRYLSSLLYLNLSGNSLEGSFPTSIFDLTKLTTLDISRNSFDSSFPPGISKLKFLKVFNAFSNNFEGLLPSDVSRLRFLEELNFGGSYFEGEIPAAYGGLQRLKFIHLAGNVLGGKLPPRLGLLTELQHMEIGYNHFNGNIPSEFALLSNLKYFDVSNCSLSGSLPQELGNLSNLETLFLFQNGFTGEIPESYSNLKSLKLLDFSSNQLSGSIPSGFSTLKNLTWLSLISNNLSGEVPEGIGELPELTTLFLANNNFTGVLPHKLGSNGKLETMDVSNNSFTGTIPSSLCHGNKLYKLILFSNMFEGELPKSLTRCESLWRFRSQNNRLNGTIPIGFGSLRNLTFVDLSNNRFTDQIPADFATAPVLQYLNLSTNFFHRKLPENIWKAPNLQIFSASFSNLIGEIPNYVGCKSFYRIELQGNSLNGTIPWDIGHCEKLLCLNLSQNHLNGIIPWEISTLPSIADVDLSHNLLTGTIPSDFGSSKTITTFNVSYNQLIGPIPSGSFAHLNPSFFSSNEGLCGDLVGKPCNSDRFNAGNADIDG
# assayText: ITC
Square brackets hold non-standard residues; d marks the D form. Ends that are not written are not given here. Hyp = O=C(O)[C@@H]1C[C@@H](O)CN1
valueKind: pKd
Value format note: pKd is -log10 of concentration (mol/L); just state the number.

Reported pKd, binder HEV[Hyp]SG[Hyp]NPISN (TDIF, the 12-residue CLE peptide processed from CLE41 and CLE44 of A. thaliana; printed as HEV(Hyp)SG(Hyp)NPISN; numbers count on: the 12-residue peptide; CLE44 encodes the same peptide; also called wild type TDIF; wtTDIF; source: synthetic peptide (peptide 2.0)) [Tracheary Element Differentiation Inhibitory Factor (TDIF) peptide] : ____
6.06
